Counter-ions that a name gives are not always drawn.
The entries below are paired with their reported melting point.
Please respond with the number in °C and leave the unit unwritten.

Below, each entry is followed by its recorded melting point result.
CC(C)c1ccc(N(Cc2ccc(N(C)C)cc2)C(=O)C2CCCc3cc(OCCN(C)C)ccc32)cc1 (centres unmarked) (hydrate or solvate) ... 132.6
CC(C)c1ccc(N(Cc2ccc(N(C)C)cc2)C(=O)C2CCCc3ccccc32)cc1 (centres unmarked) ... 121
COc1ccc2c(c1)C(C(=O)N(Cc1ccc(CO)cc1)c1ccc(C(C)C)cc1)CCC2 (centres unmarked) ... 143.2
CC(C)c1ccc(N(Cc2ccc(N(C)C)cc2)C(=O)C2CCCc3c(OCCN(C)C)cccc32)cc1 (centres unmarked) (as salt: oxalate) (hydrate or solvate) ... 155.7
CCn1cc(CN(C(=O)C2CCCc3c(OCCCN(C)C)cccc32)c2ccc(C(C)C)cc2)cn1 (centres unmarked) (as salt: oxalate) ... 142.6

Could you share which melting point value was measured for CC(C)c1ccc(N(Cc2cnn(CCN(C)C)c2)C(=O)C2CCCc3c(O)cccc32)cc1 (centres unmarked) ?
92

Could you share which melting point value was measured for CC(C)c1ccc(N(Cc2ccc(N(C)C)cc2)C(=O)C2CCCc3ccc(F)cc32)cc1 (centres unmarked) (as salt: hydrochloride) ?
165.6
